Assay: in vivo
Type: in vivo, rat
Conditions: Sprague Dawley, liver, oral, 2.6 mg/kg per day; female rats, 2.6 mg per day and per kilogram of rat for 3 days; read-out: hepatic concentration
MEASUREMENT LABEL: concentration at 4 day

Qu. Report concentration at 4 day for O=c1oc2ccccc2c(O)c1C1CC(c2ccc(-c3ccccc3)cc2)Cc2ccccc21 (stereo not drawn) [trans-difenacoum]
Ans. ~12000 ng/g

----------
// reported pKi per item
Target: recombinant enzyme rVKORC1 (Rattus norvegicus, UniProt Q6TEK4)
Sequence (Q6TEK4 whole entry): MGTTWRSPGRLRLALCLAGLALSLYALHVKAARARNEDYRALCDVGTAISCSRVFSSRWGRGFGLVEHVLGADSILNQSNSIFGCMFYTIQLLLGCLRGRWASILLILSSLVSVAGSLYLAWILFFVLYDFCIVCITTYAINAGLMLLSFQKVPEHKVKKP
Assay: Inhibition constant of the recombinant enzyme rVKORC1
A value of pKi is the negative decimal logarithm of a concentration given in moles per litre.

[
  {
    "COMPOUND": "O=c1oc2ccccc2c(O)c1C1CC(c2ccc(-c3ccccc3)cc2)Cc2ccccc21 (stereo not drawn) [cis-difenacoum, reference compound]",
    "RESULT VALUE": 7.22
  }
]

Qu. Report pKi for O=c1oc2ccccc2c(O)c1C1CC(c2ccc(-c3ccccc3)cc2)Cc2ccccc21 (stereo not drawn) [trans-difenacoum]
Ans. 7.52

// data source = patent US9706770B2
